Values were extracted from ChEMBL document CHEMBL3044670.

Test system: Staphylococcus epidermidis
Assay: Antibacterial activity against Staphylococcus epidermidis ATCC 12228 at 140 ug/disk after 18 to 24 hr by disk diffusion method
Format: functional
Settings: read-out: DIZ
Short version: zone of inhibition at 140 µg/disc at least 10 mm is fulfilled, less is not fulfilled.

INPUT: Does zone of inhibition at 140 µg/disc meet or surpass 10 mm for CN(/N=C/c1c(O)ccc2ccccc12)S(=O)(=O)c1ccccc1 ?
OUTPUT: fulfilled

INPUT: Decide: is the reported value of zone of inhibition at 140 µg/disc for C/C(=N\N(C)S(=O)(=O)c1ccccc1)c1ccccc1O equal to or greater than 10 mm?
OUTPUT: fulfilled

INPUT: hey, is zone of inhibition at 140 µg/disc for this one >= 10 mm? O=S(=O)(NCCO)c1ccccc1
OUTPUT: not fulfilled

INPUT: Does zone of inhibition at 140 µg/disc meet or surpass 10 mm for CN(/N=C/c1cccs1)S(=O)(=O)c1ccccc1 ?
OUTPUT: fulfilled

INPUT: Evaluate NCC(O)CNS(=O)(=O)c1ccccc1 (stereo unspecified) : zone of inhibition at 140 µg/disc at minimum 10 mm?
OUTPUT: not fulfilled

INPUT: Could you tell me if the measured zone of inhibition at 140 µg/disc of CN(N)S(=O)(=O)c1ccccc1 reaches 10 mm or more?
OUTPUT: fulfilled
